Origin of measurements: ChEMBL document CHEMBL1139969

test: Oral bioavailability in rat at 5 umol/kg; format: ADME, organism-based; details: in vivo
readout type: bioavailability

>>> endpoint_result("Cc1ccccc1Cn1cnnc1-c1cccc(Cl)c1Cl")
"15%"

----------
test: Cmax in rat at 5 umol/kg, ip; type: ADME, organism-based; design: dose 5 umol/kg, route intraperitoneal; settings: in vivo
readout type: Cmax (ng/mL)

>>> endpoint_result("Cc1ccccc1Cn1cnnc1-c1cccc(Cl)c1Cl")
210

----------
target: P2X purinoceptor 7 (Rattus norvegicus); assay: Antagonist activity at rat recombinant P2X7 receptor
Sequence (Q64663 whole entry): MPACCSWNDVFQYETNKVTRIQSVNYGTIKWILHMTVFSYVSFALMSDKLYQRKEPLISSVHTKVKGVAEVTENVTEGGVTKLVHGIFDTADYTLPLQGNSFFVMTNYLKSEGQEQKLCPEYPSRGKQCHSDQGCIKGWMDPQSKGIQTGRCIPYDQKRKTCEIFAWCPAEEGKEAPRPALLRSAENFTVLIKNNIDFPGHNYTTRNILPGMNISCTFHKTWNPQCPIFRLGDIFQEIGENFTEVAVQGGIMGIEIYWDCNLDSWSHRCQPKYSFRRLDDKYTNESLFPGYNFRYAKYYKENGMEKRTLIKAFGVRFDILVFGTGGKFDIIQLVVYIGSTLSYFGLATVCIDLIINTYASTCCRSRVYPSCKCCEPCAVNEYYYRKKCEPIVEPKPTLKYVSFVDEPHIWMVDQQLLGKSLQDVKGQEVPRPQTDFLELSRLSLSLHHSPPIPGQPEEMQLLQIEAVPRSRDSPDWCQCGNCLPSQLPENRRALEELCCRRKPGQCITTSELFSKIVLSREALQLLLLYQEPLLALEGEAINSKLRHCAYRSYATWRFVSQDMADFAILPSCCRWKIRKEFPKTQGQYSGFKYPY
pIC50: −log10 of the molar value.
# Lookup of reported pIC50 keyed by entry
readout type: pIC50

>>> endpoint_result("Clc1cccc(-c2nnnn2Cc2ccccc2)c1Cl")
7.12
>>> endpoint_result("Cc1ccc(F)cc1Cn1cnnc1-c1cccc(Cl)c1Cl")
6.26
>>> endpoint_result("Clc1cccc(-c2nncn2[C@@H]2CCc3ccccc32)c1Cl")
7.11
>>> endpoint_result("O=C(NCC12CC3CC(CC(C3)C1)C2)c1cccc(Cl)c1Cl")
6.09
>>> endpoint_result("Cc1ccccc1Cn1cnnc1-c1cccc(Cl)c1Cl")
6.68

----------
test: Clearance in rat at 5 umol/kg, iv; type: ADME, organism-based; details: in vivo
readout type: clearance (mL/min/kg)

>>> endpoint_result("Cc1ccccc1Cn1cnnc1-c1cccc(Cl)c1Cl")
51.7

----------
experiment: Tmax in rat at 5 umol/kg, ip; assay type: ADME, organism-based; conditions: in vivo
readout type: Tmax (min)

>>> endpoint_result("Cc1ccccc1Cn1cnnc1-c1cccc(Cl)c1Cl")
19.8

----------
assay: Half life in ip dosed rat Chung model of neuropathic pain; format: ADME, organism-based; settings: in vivo
readout type: half-life (h)

>>> endpoint_result("Cc1ccccc1Cn1cnnc1-c1cccc(Cl)c1Cl")
1.7

----------
biological target: P2X purinoceptor 7 (Homo sapiens, UniProt Q99572); test: Antagonist activity at human recombinant P2X7 receptor; type: functional
Sequence (Q99572 whole entry): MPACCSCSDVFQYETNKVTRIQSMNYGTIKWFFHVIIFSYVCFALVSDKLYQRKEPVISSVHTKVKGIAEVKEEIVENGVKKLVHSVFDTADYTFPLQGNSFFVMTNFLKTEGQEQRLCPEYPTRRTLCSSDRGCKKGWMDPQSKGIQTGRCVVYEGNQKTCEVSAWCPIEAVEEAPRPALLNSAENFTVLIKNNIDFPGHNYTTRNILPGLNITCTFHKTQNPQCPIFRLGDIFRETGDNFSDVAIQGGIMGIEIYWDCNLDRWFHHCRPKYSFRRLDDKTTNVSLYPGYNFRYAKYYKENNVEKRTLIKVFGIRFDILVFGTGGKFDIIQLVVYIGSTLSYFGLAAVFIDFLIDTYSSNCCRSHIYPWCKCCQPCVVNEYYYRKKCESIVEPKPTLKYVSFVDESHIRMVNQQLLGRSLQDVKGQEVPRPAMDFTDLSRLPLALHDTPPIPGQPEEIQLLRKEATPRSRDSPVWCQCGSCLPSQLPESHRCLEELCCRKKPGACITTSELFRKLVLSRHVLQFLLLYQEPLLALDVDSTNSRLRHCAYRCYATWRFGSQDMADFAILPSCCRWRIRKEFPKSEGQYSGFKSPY
pIC50: −log10 of the molar value.
# Lookup of reported pIC50 keyed by entry
readout type: pIC50

>>> endpoint_result("COc1ccccc1Cn1cnnc1-c1cccc(Cl)c1Cl")
6.72
>>> endpoint_result("FC(F)(F)c1ccccc1Cn1cnnc1-c1cccc(Cl)c1Cl")
6.88
>>> endpoint_result("Clc1cccc(-c2nncn2[C@@H]2CCc3ccccc32)c1Cl")
7.72
>>> endpoint_result("FC(F)c1ccccc1Cn1cnnc1-c1cccc(Cl)c1Cl")
6.93
>>> endpoint_result("Clc1cccc(-c2nncn2Cc2cccc3ccccc23)c1Cl")
7.23
>>> endpoint_result("Fc1ccc(C(F)(F)F)c(Cn2cnnc2-c2cccc(Cl)c2Cl)c1")
7.31

----------
assay: Bioavailability in ip dosed rat Chung model of neuropathic pain; assay type: ADME, organism-based; details: in vivo
readout type: bioavailability (%)

>>> endpoint_result("Cc1ccccc1Cn1cnnc1-c1cccc(Cl)c1Cl")
62

----------
biological target: P2X purinoceptor 7 (Homo sapiens, UniProt Q99572); assay: Antagonist activity at human recombinant P2X7 receptor
# Lookup of reported log10 IC50 keyed by entry
readout type: log10 IC50 (log10 of the value in nM)

>>> endpoint_result("Clc1cccc(-c2cncn2Cc2ccccc2)c1Cl")
3.26
>>> endpoint_result("FC(F)(F)c1cccc(Cn2cnnc2-c2cccc(Cl)c2Cl)c1")
3.11
>>> endpoint_result("FC(F)(F)c1ccc(Cn2cnnc2-c2cccc(Cl)c2Cl)cc1")
3.95
>>> endpoint_result("Cc1ccccc1Cn1cnnc1-c1cccc(Cl)c1Cl")
1.89
>>> endpoint_result("CC(C)(c1ccccc1)n1cnnc1-c1cccc(Cl)c1Cl")
4.12
>>> endpoint_result("Clc1ccc(Cl)c(Cn2cnnc2-c2cccc(Cl)c2Cl)c1")
2.14
>>> endpoint_result("Clc1cccc(Cn2cnnc2-c2cccc(Cl)c2Cl)c1Cl")
2.28
>>> endpoint_result("Fc1ccc(C(F)(F)F)cc1Cn1cnnc1-c1cccc(Cl)c1Cl")
2.96
>>> endpoint_result("COc1cccc(Cn2cnnc2-c2cccc(Cl)c2Cl)c1")
2.33
>>> endpoint_result("Clc1cccc(-n2ncnc2Cc2ccccc2)c1Cl")
2.32
>>> endpoint_result("O=C(NCC12CC3CC(CC(C3)C1)C2)c1cccc(Cl)c1Cl")
1.81
